# Measurement Target: recombinant human Nav1.7 (Homo sapiens)
# Construct: expressed in transfected cells; host or cells: HEK293
# Sequence (Q15858 whole entry): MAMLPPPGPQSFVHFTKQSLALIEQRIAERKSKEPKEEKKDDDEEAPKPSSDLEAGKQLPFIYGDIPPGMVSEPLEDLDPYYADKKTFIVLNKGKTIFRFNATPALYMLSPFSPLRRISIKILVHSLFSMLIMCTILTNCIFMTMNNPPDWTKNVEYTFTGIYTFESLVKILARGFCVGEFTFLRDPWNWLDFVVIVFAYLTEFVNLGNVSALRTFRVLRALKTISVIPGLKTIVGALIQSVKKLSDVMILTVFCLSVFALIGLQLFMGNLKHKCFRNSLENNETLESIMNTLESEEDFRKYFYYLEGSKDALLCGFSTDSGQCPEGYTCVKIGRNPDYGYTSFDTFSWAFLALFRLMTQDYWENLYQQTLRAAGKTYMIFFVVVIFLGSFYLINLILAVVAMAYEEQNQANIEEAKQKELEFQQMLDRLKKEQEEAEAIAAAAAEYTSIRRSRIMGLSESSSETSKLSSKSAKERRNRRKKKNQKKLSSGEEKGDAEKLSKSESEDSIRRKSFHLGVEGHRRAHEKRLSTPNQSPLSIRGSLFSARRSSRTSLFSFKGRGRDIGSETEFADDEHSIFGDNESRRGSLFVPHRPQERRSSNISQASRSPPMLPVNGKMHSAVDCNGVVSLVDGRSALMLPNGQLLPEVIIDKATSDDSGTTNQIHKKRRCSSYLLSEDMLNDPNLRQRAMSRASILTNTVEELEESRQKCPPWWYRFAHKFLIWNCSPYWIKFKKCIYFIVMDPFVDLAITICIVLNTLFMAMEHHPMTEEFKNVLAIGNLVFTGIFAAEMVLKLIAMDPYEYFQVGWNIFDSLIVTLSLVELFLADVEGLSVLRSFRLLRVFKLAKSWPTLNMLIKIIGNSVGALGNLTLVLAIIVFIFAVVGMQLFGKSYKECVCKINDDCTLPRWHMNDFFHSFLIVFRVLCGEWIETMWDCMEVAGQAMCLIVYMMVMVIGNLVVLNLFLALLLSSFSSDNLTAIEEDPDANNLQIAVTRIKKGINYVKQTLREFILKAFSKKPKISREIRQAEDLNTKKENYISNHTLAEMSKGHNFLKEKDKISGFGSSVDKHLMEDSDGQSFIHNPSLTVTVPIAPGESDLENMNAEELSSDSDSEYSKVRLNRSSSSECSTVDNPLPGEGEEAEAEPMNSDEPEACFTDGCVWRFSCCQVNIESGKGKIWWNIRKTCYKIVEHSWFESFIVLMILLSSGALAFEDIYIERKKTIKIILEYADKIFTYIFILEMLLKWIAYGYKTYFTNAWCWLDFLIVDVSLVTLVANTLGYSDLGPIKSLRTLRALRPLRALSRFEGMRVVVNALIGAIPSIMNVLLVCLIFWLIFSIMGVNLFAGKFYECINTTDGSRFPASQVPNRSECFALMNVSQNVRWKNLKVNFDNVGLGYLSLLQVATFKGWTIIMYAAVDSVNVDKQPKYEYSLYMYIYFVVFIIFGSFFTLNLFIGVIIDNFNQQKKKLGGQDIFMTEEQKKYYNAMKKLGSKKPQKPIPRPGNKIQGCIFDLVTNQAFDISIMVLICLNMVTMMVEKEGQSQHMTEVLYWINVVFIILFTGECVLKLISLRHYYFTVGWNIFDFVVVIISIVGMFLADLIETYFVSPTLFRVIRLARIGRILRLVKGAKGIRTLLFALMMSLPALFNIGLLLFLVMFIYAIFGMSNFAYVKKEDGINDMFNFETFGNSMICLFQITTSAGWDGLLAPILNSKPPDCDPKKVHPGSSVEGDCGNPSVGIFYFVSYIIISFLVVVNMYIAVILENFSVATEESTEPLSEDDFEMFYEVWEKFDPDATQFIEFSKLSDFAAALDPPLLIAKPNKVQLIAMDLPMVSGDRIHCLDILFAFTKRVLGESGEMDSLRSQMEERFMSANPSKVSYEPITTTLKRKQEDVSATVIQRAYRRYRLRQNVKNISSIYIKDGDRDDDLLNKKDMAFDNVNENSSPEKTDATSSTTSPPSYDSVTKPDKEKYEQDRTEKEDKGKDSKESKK
# Assay Name: FRET-based membrane potential assay, Nav1.7
# Type: cell-based
# Experimental Parameters: HEK293 cells expressing recombinant human Nav1.7; veratridine + scorpion venom depolarization
# condition met = IC50 below 3 µM (exclusive); condition not met = IC50 at/above 3 µM

{"Compound": "O=C1[C@H]2[C@H](CCN2C(=O)C2(O)CC2)CN1c1cccc2c1cnn2-c1ccccc1F (relative stereo) [Example 5]", "Measurement Target": "recombinant human Nav1.7 (Homo sapiens)", "Class Label": "condition met"}
{"Compound": "C[C@H](O)CC(=O)N1C[C@@H]2CN(c3cccc4c3cnn4-c3ccccc3F)C(=O)[C@@H]2C1 [Example 36]", "Measurement Target": "recombinant human Nav1.7 (Homo sapiens)", "Class Label": "condition not met"}
{"Compound": "C[C@@H](O)CC(=O)N1CC[C@@H]2CN(c3cccc4c3cnn4-c3ccccc3F)C(=O)[C@@H]21 (mixture of isomers) [Example 7]", "Measurement Target": "recombinant human Nav1.7 (Homo sapiens)", "Class Label": "condition not met"}
{"Compound": "O=C1[C@H]2[C@H](CCN2C(=O)[C@@H]2CCOC2)CN1c1cccc2c1cnn2-c1ccccc1F (mixture of isomers) [Example 3]", "Measurement Target": "recombinant human Nav1.7 (Homo sapiens)", "Class Label": "condition met"}
{"Compound": "NC(=O)CC(=O)N1C[C@H]2CN(c3cccc4c3cnn4-c3ccccc3F)C(=O)[C@H]2C1 [Example 44]", "Measurement Target": "recombinant human Nav1.7 (Homo sapiens)", "Class Label": "condition not met"}
{"Compound": "C[C@@H](O)CC(=O)N1C[C@H]2CN(c3cccc4c3cnn4-c3ccccc3F)C(=O)[C@H]2C1 [Example 38]", "Measurement Target": "recombinant human Nav1.7 (Homo sapiens)", "Class Label": "condition not met"}

----------
# Measurement Target: hERG channel (Kv11.1) (Homo sapiens)
# Construct: W. January (Wisconsin Alumni Research Foundation)
# Sequence (Q12809 whole entry): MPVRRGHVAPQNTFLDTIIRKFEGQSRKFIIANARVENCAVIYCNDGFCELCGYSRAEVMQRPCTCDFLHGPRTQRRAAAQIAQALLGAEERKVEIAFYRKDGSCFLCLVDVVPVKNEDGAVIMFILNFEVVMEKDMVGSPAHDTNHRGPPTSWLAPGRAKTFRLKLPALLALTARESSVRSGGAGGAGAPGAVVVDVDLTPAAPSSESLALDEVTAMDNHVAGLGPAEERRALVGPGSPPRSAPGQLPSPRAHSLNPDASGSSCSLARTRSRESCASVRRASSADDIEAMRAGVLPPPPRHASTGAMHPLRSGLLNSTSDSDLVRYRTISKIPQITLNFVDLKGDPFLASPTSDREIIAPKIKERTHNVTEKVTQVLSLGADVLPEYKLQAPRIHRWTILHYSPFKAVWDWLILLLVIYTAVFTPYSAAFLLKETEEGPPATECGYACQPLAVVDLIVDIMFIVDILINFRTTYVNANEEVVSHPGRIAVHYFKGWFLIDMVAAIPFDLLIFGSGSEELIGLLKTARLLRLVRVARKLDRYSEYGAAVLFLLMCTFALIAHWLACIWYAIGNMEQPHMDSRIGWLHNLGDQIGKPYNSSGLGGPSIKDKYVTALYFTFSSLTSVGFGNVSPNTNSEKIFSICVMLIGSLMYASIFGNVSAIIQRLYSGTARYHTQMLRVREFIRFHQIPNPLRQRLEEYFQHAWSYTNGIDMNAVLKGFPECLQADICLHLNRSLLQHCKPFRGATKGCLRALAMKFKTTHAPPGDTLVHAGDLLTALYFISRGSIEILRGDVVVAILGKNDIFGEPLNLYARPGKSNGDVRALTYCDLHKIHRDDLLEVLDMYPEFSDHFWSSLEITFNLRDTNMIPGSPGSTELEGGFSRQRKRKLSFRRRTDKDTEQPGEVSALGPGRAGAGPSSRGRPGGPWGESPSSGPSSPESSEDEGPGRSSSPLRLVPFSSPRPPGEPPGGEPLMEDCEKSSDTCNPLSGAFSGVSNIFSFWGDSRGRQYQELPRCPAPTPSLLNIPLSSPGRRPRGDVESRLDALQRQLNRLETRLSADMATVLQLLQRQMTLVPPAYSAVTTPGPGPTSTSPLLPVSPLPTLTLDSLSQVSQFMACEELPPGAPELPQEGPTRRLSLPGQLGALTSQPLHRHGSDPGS
# Assay Name: hERG QPatch screening protocol (hERG current block)
# Experimental Parameters: HEK-293 cells stably transfected with hERG; tail current; room temperature
In this section we review reported IC50 values for a set of compounds.
Measured Attribute: IC50

{"Compound": "O=C(c1coc(CN2CCCC2)n1)N1C[C@@H]2CN(c3cccc4c3cnn4-c3ccccc3F)C(=O)[C@@H]2C1", "Measured Result": "13.5 µM"}
{"Compound": "O=C(C1CCOC1)N1C[C@@H]2CN(c3cccc4c3cnn4-c3ccccc3F)C(=O)[C@@H]2C1 (some centres unmarked)", "Measured Result": "7.43 µM"}
{"Compound": "CC(C)(O)CC(=O)N1CC[C@@H]2CN(c3cccc4c3cnn4-c3ccccc3F)C(=O)[C@@H]21 (single isomer, unassigned)", "Measured Result": "> 30 µM"}
{"Compound": "O=C1[C@H]2[C@H](CCN2C(=O)C2(O)CC2)CN1c1cccc2c1cnn2-c1ccccc1F (relative stereo)", "Measured Result": "> 30 µM"}
{"Compound": "O=C(C1CC(Cl)C1)N1C[C@H]2CN(c3cccc4c3cnn4-c3ccccc3F)C(=O)[C@H]2C1 (some centres unmarked)", "Measured Result": "> 30 µM"}
{"Compound": "O=C1[C@@H]2CN(S(=O)(=O)c3ccccc3)C[C@@H]2CN1c1cccc2c1cnn2-c1ccccc1F", "Measured Result": "26.5 µM"}
{"Compound": "CC(C)CS(=O)(=O)N1C[C@@H]2CN(c3cccc4c3cnn4-c3ccccc3F)C(=O)[C@@H]2C1", "Measured Result": "14.2 µM"}
{"Compound": "O=C(Cc1coc2ccccc12)N1CC2CN(c3cccc4c3cnn4-c3ccccc3F)C(=O)C2C1 (centres unmarked)", "Measured Result": "4.31 µM"}
{"Compound": "O=C(CC1CCCO1)N1C[C@@H]2CN(c3cccc4c3cnn4-c3ccccc3F)C(=O)[C@H]2C1 (relative stereo)", "Measured Result": "> 30 µM"}
{"Compound": "CC(C)(O)CC(=O)N1CC[C@H]2CN(c3cccc4c3cnn4-c3ccccc3F)C(=O)[C@H]21 (single isomer, unassigned)", "Measured Result": "> 30 µM"}
{"Compound": "O=C1[C@H]2[C@H](CCN2C(=O)[C@@H]2CCOC2)CN1c1cccc2c1cnn2-c1ccccc1F (mixture of isomers)", "Measured Result": "> 30 µM"}
{"Compound": "C[C@H](O)CC(=O)N1C[C@H]2CN(c3cccc4c3cnn4-c3ccccc3F)C(=O)[C@H]2C1", "Measured Result": "> 30 µM"}
{"Compound": "CC(C)S(=O)(=O)N1C[C@@H]2CN(c3cccc4c3cnn4-c3ccccc3F)C(=O)[C@@H]2C1", "Measured Result": "17 µM"}
{"Compound": "O=C1[C@H]2CN(C(=O)n3ccnc3)C[C@H]2CN1c1cccc2c1cnn2-c1ccccc1F (relative stereo)", "Measured Result": "13.7 µM"}

Provenance of the data: patent US9682985B2
